Molecular target: Angiotensin II receptor (AT-1) type-1 (Rattus norvegicus, UniProt P29089+P25095)
Test: In vitro displacement of [125I]angiotensin II from rat liver (Angiotensin 1 receptor) membrane preparation
MEASURED METRIC: IC50 (nM)

{"COMPOUND": "CCCCc1nc(SC(F)F)c(C(=O)O)n1Cc1ccc(-c2ccccc2S(=O)(=O)NC(=O)CCC)cc1", "TEST TARGET": "Angiotensin II receptor (AT-1) type-1 (Rattus norvegicus, UniProt P29089+P25095)", "IC50 / nM": 0.5}

[I] CCCc1nc(SC(F)F)c(C(=O)O)n1Cc1ccc(-c2ccccc2S(=O)(=O)NC(=O)Cc2ccc3c(c2)OCO3)cc1
[II] CCCCNC(=O)NS(=O)(=O)c1ccccc1-c1ccc(Cn2c(CCCC)nc(SC)c2C(=O)O)cc1
[III] CCCc1nc(SC)c(C(=O)O)n1Cc1ccc(-c2ccccc2S(=O)(=O)NC(=O)Nc2ccc(C)cc2)cc1
[IV] CCCc1nc(SC(F)F)c(C(=O)O)n1Cc1ccc(-c2ccccc2S(=O)(=O)NC(=O)Cc2ccc(F)cc2)cc1
[V] CCCc1nc(SC)c(C(=O)O)n1Cc1ccc(-c2ccccc2S(=O)(=O)NC(=O)Nc2ccccc2)cc1
Rank ascending by IC50. # the answer lists labels in the order requested
IV, II, I, III, V

[A] CCCCc1nc(SC)c(C(=O)O)n1Cc1ccc(-c2ccccc2S(=O)(=O)NC(=O)NCC)cc1
[B] CCCc1nc(SC(F)F)c(C(=O)O)n1Cc1ccc(-c2ccccc2S(=O)(=O)NC(=O)C(C)c2ccccc2)cc1 (stereo not given)
# query: argmin of IC50 over A and B Choose, then provide that item's label.
A

[A] CCCc1nc(SC)c(C(=O)O)n1Cc1ccc(-c2ccccc2S(=O)(=O)NC(=O)NCc2ccccc2)cc1
[B] CCCCc1nc(SC)c(C(=O)O)n1Cc1ccc(-c2ccccc2S(=O)(=O)NC(=O)NC(c2ccccc2)c2ccccc2)cc1
[C] CCCCc1nc(SC)c(C(=O)O)n1Cc1ccc(-c2ccccc2S(=O)(=O)NC(=O)N(c2ccccc2)c2ccccc2)cc1
[D] CCCc1nc(SC)c(C(=O)O)n1Cc1ccc(-c2ccccc2S(=O)(=O)NC(=O)NCC2CCCC2)cc1
Sort ascending by IC50. Rank the items, then write their labels in that order.
D, A, B, C
(D: 0.1 nM, A: 0.2 nM, B: 0.4 nM, C: 1.2 nM)

[1] CCCc1nc(SC(F)F)c(C(=O)O)n1Cc1ccc(-c2ccccc2S(=O)(=O)NC(=O)Cc2ccccc2)cc1
[2] CCc1nc(SC)c(C(=O)O)n1Cc1ccc(-c2ccccc2S(=O)(=O)NC(=O)NCC2CCCCC2)cc1
[3] CCc1nc(SC)c(C(=O)O)n1Cc1ccc(-c2ccccc2S(=O)(=O)NC(=O)NCc2ccccc2)cc1
Ordering: ascending IC50. // rank by listing labels in the order requested
3, 1, 2
(3: 0.1 nM, 1: 0.2 nM, 2: 1.3 nM)

---

Target: Angiotensin II receptor (Rattus norvegicus) (UniProt P29089+P25095+P35351)
Assay: In vivo inhibition of pressor response induced by Angiotensin II (AII) following intravenous administration to pithed rats
Format: functional, organism-based
MEASURED METRIC: ID50 (mg/kg)

These solved cases illustrate the format of a correct answer.
{"STRUCTURE NOTATION": "CCCCc1nc(SC(F)F)c(C(=O)O)n1Cc1ccc(-c2ccccc2S(=O)(=O)NC(=O)CC2CCCCC2)cc1", "ID50 / mg/kg": 0.6}
{"STRUCTURE NOTATION": "CCCc1nc(SC)c(C(=O)O)n1Cc1ccc(-c2ccccc2S(=O)(=O)NC(=O)Nc2ccccc2)cc1", "ID50 / mg/kg": 0.52}
{"STRUCTURE NOTATION": "CCCc1nc(SC(F)F)c(C(=O)O)n1Cc1ccc(-c2ccccc2S(=O)(=O)NC(=O)CCc2ccccc2)cc1", "ID50 / mg/kg": 0.64}
{"STRUCTURE NOTATION": "CCCc1nc(SC(F)F)c(C(=O)O)n1Cc1ccc(-c2ccccc2S(=O)(=O)NC(=O)CC2CCCCC2)cc1", "ID50 / mg/kg": 0.22}
{"STRUCTURE NOTATION": "CCCCNC(=O)NS(=O)(=O)c1ccccc1-c1ccc(Cn2c(CCCC)nc(SC)c2C(=O)O)cc1", "ID50 / mg/kg": 0.09}

[P] CCCCc1nc(SC)c(C(=O)O)n1Cc1ccc(-c2ccccc2S(=O)(=O)NC(=O)NCC2CCCCC2)cc1
[Q] CCCc1nc(SC(F)F)c(C(=O)O)n1Cc1ccc(-c2ccccc2S(=O)(=O)NC(=O)CCCc2ccccc2)cc1
When the recorded ID50 values are compared, which is smaller: that of P or that of Q ? Kindly give the label for the entry you pick.
P

[a] CCCc1nc(SC)c(C(=O)O)n1Cc1ccc(-c2ccccc2S(=O)(=O)NC(=O)NCc2ccccc2)cc1
[b] CCCCc1nc(SC(F)F)c(C(=O)O)n1Cc1ccc(-c2ccccc2S(=O)(=O)NC(=O)Cc2ccccc2)cc1
[c] CCCCc1nc(SC)c(C(=O)O)n1Cc1ccc(-c2ccccc2S(=O)(=O)NC(=O)NCCC)cc1
[d] CCCCc1nc(SC)c(C(=O)O)n1Cc1ccc(-c2ccccc2S(=O)(=O)NC(=O)N(c2ccccc2)c2ccccc2)cc1
Hi! Can you put these in order of ID50, lowest number first? Provide the labels, sequenced as the question asks.
c, a, b, d
(c: 0.11 mg/kg, a: 0.22 mg/kg, b: 0.36 mg/kg, d: 5.8 mg/kg)

---

Biological target: Angiotensin II receptor (Rattus norvegicus) (UniProt P29089+P25095+P35351)
Assay: In vivo inhibition of pressor response induced by Angiotensin II (AII) following intravenous administration to pithed rats
Assay type: functional, organism-based
MEASURED METRIC: ID50 (mg/kg)

As a guide, the following entries are already answered.
{"STRUCTURE NOTATION": "CCCc1nc(SC(F)F)c(C(=O)O)n1Cc1ccc(-c2ccccc2S(=O)(=O)NC(=O)Cc2cccs2)cc1", "TEST TARGET": "Angiotensin II receptor (Rattus norvegicus) (UniProt P29089+P25095+P35351)", "MEASURED METRIC": "ID50", "UNIT ABBREVIATION": "mg/kg", "MEASUREMENT": 0.13}
{"STRUCTURE NOTATION": "CCCc1nc(SC(F)F)c(C(=O)O)n1Cc1ccc(-c2ccccc2S(=O)(=O)NC(=O)Cc2ccc(F)cc2)cc1", "TEST TARGET": "Angiotensin II receptor (Rattus norvegicus) (UniProt P29089+P25095+P35351)", "MEASURED METRIC": "ID50", "UNIT ABBREVIATION": "mg/kg", "MEASUREMENT": 0.43}
{"STRUCTURE NOTATION": "CCc1nc(SC)c(C(=O)O)n1Cc1ccc(-c2ccccc2S(=O)(=O)NC(=O)NCC2CCCCC2)cc1", "TEST TARGET": "Angiotensin II receptor (Rattus norvegicus) (UniProt P29089+P25095+P35351)", "MEASURED METRIC": "ID50", "UNIT ABBREVIATION": "mg/kg", "MEASUREMENT": 1.84}

[a] CCCc1nc(SC)c(C(=O)O)n1Cc1ccc(-c2ccccc2S(=O)(=O)NC(=O)NCC2CCCCC2)cc1
[b] CCCCc1nc(SC)c(C(=O)O)n1Cc1ccc(-c2ccccc2S(=O)(=O)NC(=O)NCC)cc1
When their ID50 values are compared, which is larger, a or b ? Kindly state the label of the option you pick.
a
(a: 0.3 mg/kg, b: 0.17 mg/kg)

[A] CCCCc1nc(SC)c(C(=O)O)n1Cc1ccc(-c2ccccc2S(=O)(=O)NC(=O)NC)cc1
[B] CCCc1nc(SC)c(C(=O)O)n1Cc1ccc(-c2ccccc2S(=O)(=O)NC(=O)Nc2ccc(C)cc2)cc1
[C] CCc1nc(SC)c(C(=O)O)n1Cc1ccc(-c2ccccc2S(=O)(=O)NC(=O)NCc2ccccc2)cc1
[D] CCCCc1nc(SC(F)F)c(C(=O)O)n1Cc1ccc(-c2ccccc2S(=O)(=O)NC(=O)CCC)cc1
Order each entry by recorded ID50, climbing from the minimum. Quick reminder: the answer is the labels in the order asked.
D, A, B, C
(D: 0.09 mg/kg, A: 0.27 mg/kg, B: 0.87 mg/kg, C: 1.37 mg/kg)

[1] CCCc1nc(SC(F)F)c(C(=O)O)n1Cc1ccc(-c2ccccc2S(=O)(=O)NC(=O)CCc2cccs2)cc1
[2] CCCc1nc(SC(F)F)c(C(=O)O)n1Cc1ccc(-c2ccccc2S(=O)(=O)NC(=O)Cc2ccccc2Cl)cc1
Form: Entry with minimum ID50 (choose one): 1 / 2 Return value: the label identifying the chosen record.
1
(1: 0.33 mg/kg, 2: 0.8 mg/kg)
